# Test system: P. aeruginosa ATCC 27853
# assay: Broth microdilution MIC in CAMHB
# Assay type: cell-based
# condition: Pseudomonas aeruginosa, ATCC27853; MHB; read-out: Minimum Inhibitory Concentration, P. aeruginosa ATCC 27853
measurement name: MIC

Query: Please report the recorded MIC for NCCCN1CCN(C(=O)N[C@@H](C(=O)N[C@H]2Cc3cccc(C(=O)O)c3OB2O)c2ccc(O)c(F)c2F)C(=O)C1=O (single isomer, unassigned) .
Reply: 32 to 64 mg/L

Query: Please report the recorded MIC for CCN1CCN(C(=O)NC(C(=O)N[C@H]2Cc3ccc(F)c(C(=O)O)c3OB2O)c2nc(N)sc2F)C(=O)C1=O (stereo partly drawn) .
Reply: > 128 mg/L

Query: Please report the recorded MIC for CCN1CCN(C(=O)N[C@@H](C(=O)N[C@H]2Cc3cccc(C(=O)O)c3OB2O)c2ccc(C(=O)O)c(F)c2)C(=O)C1=O (single isomer, unassigned) .
Reply: 32 to 64 mg/L

Query: Please report the recorded MIC for N=C(N)NCCN1CCN(C(=O)NC(C(=O)N[C@H]2Cc3ccc(F)c(C(=O)O)c3OB2O)c2ccc(C(=O)O)c(F)c2)C(=O)C1=O (stereo partly drawn) .
Reply: 32 to 64 mg/L

Query: Please report the recorded MIC for CCN1CCN(C(=O)NC(C(=O)N[C@H]2Cc3cccc(C(=O)O)c3OB2O)c2ccc(O)cc2OC)C(=O)C1=O (stereo partly drawn) .
Reply: > 128 mg/L

Query: Please report the recorded MIC for NCCN1CCN(C(=O)N[C@@H](C(=O)N[C@H]2Cc3cccc(C(=O)O)c3OB2O)c2c(O)cc(O)cc2F)C(=O)C1=O (single isomer, unassigned) .
Reply: > 128 mg/L

* * *

# Tested on: P. aeruginosa ATCC 35151
# assay: Broth microdilution MIC in iron-depleted CAMHB (IDM)
# Type: cell-based
# condition: Pseudomonas aeruginosa, ATCC35151; iron-depleted MHB (IDM); hyper-permeable strain; read-out: Minimum Inhibitory Concentration, P. aeruginosa ATCC 35151
Please go through the items and note down their MIC.
Give just the numeric value; µg/mL need not be written.

Query: Please report the recorded MIC for CS(=O)(=O)N1CCN(C(=O)N[C@@H](C(=O)N[C@H]2Cc3ccc(F)c(C(=O)O)c3OB2O)c2c(F)cc(O)c(O)c2Cl)C1=O (single isomer, unassigned) [Example 35] .
Reply: 0.25

Query: Please report the recorded MIC for CS(=O)(=O)N1CCN(C(=O)NC(C(=O)N[C@H]2Cc3ccc(F)c(C(=O)O)c3OB2O)c2ccc(O)c(O)c2Cl)C1=O (stereo partly drawn) [Example 23] .
Reply: 0.25

* * *

Please go through the items and note down their MIC.
# Test system: E. coli 901C
# assay: Broth microdilution MIC in CAMHB
# Type: cell-based
# condition: Escherichia coli; MHB; hyper-permeable E. coli 901C; read-out: Minimum Inhibitory Concentration, E. coli 901C

Query: Please report the recorded MIC for NCCCN1CCN(C(=O)N[C@@H](C(=O)N[C@H]2Cc3cccc(C(=O)O)c3OB2O)c2ccc(O)c(F)c2F)C(=O)C1=O (single isomer, unassigned) [Example 238] .
Reply: 32 to 64 µg/mL

Query: Please report the recorded MIC for O=C(O)c1cccc2c1OB(O)[C@@H](NC(=O)C(NC(=O)N1CCN(CCBr)C(=O)C1=O)c1ccc(O)c(F)c1F)C2 (stereo partly shown) [Example 249] .
Reply: > 128 µg/mL

Query: Please report the recorded MIC for C[C@H]1CN(CCCN)C(=O)C(=O)N1C(=O)NC(C(=O)N[C@H]1Cc2cccc(C(=O)O)c2OB1O)c1ccc(O)c(F)c1F (stereo partly shown) [Example 243] .
Reply: > 128 µg/mL

Query: Please report the recorded MIC for NC1(CN2CCN(C(=O)NC(C(=O)N[C@H]3Cc4cccc(C(=O)O)c4OB3O)c3cc(F)c(O)c(F)c3F)C(=O)C2=O)CC1 (single isomer, unassigned) [Example 245] .
Reply: > 128 µg/mL
